Cited source: the supplement of paper PMC10567573

B1: NETO1 (parent)
chain: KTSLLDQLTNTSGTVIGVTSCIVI

variants of: B1; experiment: protein stability index of a GFP-peptide fusion (GPS, HEK-293T) (PSI 1-6); higher = more stable; settings: c terminus: a fixed tail appended;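 further: lentivirally expressed fusions sorted by FACS into six bins by GFP to DsRed ratio, PSI derived from sequencing read proportions per bin multiplied by bin number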
Would you mind labelling by protein stability index? At or over 3 is label 1, under is label 0.

mut=V15L group_label="label 1"
mut=N10H group_label="label 0"
mut=G13H group_label="label 0"
mut=N10S group_label="label 0"
mut=V18A group_label="label 1"
mut=V23T group_label="label 0"
mut=S20R group_label="label 1"
mut=T2M group_label="label 0"
mut=S12T group_label="label 0"
mut=C21T group_label="label 0"
mut=G13W group_label="label 1"
mut=I16H group_label="label 0"
mut=V18W group_label="label 1"
mut=G17M group_label="label 0"
mut=G17F group_label="label 0"
mut=S20K group_label="label 1"
mut=T2S group_label="label 0"
mut=V18C group_label="label 0"
mut=L5F group_label="label 0"
mut=L4M group_label="label 0"
